# study_target: T1, cynomolgus monkey 4-1BB (cynomolgus monkey)
# T1 construct: whole, on cells; also called CHO-K1-cyno 4-1BB; CHO-K1/cyno4-1BB
# protocol_notes: FACS, CHO-K1/cyno 4-1BB cells [C]
assay_endpoint: EC50 (nM)
Only the number, expressed in nM, is required.

Here are 3 binders together with their reported answers.
{"binder": "PR001768 (antibody, human IgG1, V domains shown, anti-4-1BB HCAb, human IgG1 Fc) VH: EVQLLESGGGLVQPGGSLRLSCAASGFTFSNYAMTWVRQAPGKGLEWVSSISGSGDSTYYADSVKGRFTISRDNSKNTLYLQMNSLRAEDTAVYYCAKEGTGTTSDYYYNVDVWGQGTTVTVSS", "unit_abbrev": "nM", "EC50": 6.97}
{"binder": "Utomilumab analog (PR000483) (antibody, human IgG2, lambda, V domains shown, anti-4-1BB control antibody; also called Tab) VH: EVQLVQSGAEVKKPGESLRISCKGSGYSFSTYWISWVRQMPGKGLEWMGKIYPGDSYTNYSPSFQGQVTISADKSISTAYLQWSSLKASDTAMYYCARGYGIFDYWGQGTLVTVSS VL: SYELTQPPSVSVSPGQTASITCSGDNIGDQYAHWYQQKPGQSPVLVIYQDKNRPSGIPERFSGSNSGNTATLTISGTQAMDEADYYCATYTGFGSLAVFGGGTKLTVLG", "unit_abbrev": "nM", "EC50": 3.46}
{"binder": "PR001774 (antibody, human IgG1, V domains shown, anti-4-1BB HCAb, human IgG1 Fc) VH: EVQLVESGGGLVQPGGSLRLSCAASGFTFSSFAMTWVRQAPEKGLEWVSTISGSGDTTYYADSVKGRFTISRDSSKNTLYLQMNSLRAEDSAVYFCAKEATAMASDYYYGVDVWGQGTTVTVSS", "unit_abbrev": "nM", "EC50": 6.73}

Turning to the following binder.
# get_value(readout='EC50', item= PR001771 (antibody, human IgG1, V domains shown, anti-4-1BB HCAb, human IgG1 Fc) VH: EVQLLESGGGLVQPGGSLRLSCAASGFTFSNYAMTWVRQPPGKGLEWVSSISGSGGSTYYADSVKGRFTISRDNSKNTLYLQMNSLRAEDTAVYYCAKEGTGTTSDYYYNVDVWGQGTTVTVSS )
3.77
